- measured.on: Glutamate NMDA receptor; GRIN1/GRIN2B (Homo sapiens, UniProt Q05586+Q13224)
- Sequence (Q13224 whole entry, other chains not shown): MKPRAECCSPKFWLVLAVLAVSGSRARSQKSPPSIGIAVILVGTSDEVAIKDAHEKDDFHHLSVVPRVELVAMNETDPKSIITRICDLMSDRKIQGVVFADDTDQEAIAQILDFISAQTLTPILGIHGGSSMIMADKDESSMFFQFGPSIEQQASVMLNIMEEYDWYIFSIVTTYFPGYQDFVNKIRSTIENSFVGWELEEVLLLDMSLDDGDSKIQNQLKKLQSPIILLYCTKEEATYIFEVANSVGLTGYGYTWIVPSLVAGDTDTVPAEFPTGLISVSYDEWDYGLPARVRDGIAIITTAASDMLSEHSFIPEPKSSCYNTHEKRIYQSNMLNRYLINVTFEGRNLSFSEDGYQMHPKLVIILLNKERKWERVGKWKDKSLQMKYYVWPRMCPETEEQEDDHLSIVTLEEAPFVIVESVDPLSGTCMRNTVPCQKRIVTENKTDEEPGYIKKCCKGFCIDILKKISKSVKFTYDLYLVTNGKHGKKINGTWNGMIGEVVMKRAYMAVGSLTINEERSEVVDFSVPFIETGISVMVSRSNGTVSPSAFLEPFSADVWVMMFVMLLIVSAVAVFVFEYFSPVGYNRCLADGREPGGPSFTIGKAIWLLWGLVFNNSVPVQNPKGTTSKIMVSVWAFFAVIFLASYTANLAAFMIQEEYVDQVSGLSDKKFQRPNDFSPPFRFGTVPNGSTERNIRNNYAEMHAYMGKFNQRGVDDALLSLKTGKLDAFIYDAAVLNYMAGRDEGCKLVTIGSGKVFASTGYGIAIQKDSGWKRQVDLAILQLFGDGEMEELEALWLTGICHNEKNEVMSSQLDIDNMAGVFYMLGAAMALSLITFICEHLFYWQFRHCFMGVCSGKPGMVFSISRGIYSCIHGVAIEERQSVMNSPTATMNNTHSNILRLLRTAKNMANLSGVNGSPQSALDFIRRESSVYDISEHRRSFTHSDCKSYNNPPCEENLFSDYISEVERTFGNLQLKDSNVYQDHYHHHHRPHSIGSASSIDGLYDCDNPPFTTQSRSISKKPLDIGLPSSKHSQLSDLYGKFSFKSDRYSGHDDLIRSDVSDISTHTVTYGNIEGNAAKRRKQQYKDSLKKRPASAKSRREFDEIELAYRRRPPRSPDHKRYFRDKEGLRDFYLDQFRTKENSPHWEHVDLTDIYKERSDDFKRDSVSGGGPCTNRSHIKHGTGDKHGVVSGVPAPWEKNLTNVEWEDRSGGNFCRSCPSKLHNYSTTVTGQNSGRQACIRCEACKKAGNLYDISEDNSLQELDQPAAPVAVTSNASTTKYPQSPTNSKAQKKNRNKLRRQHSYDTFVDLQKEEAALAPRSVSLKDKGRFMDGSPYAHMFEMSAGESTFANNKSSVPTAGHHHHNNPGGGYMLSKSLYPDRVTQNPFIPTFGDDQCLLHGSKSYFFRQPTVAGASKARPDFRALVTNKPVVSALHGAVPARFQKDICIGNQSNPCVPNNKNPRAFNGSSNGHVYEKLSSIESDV
- experiment.description: Displacement of [3H]-ifenprodil from GluN1a/GluN2B (unknown origin) expressed in L(tk-) cell membranes after 120 mins by scintillation counting analysis
Exercise: for every item that follows, state its recorded pKi.
The value called pKi is obtained by taking minus log10 of the concentration in mol/L.

Fill in the blank: the reported pKi of c1ccc(CCCCNC2CCc3cccnc3CC2)cc1 (stereo not given) is ____.
6.83

Give the measured pKi of CN(CCCCc1ccccc1)C1CCc2cccnc2CC1 (stereo not given) .
6.32

Looking for the measured pKi of c1ccc(CCCNC2CCc3cccnc3CC2)cc1 (stereo not given) , can you help?
6.52

Which pKi is reported for this molecule? CN(CCCc1ccccc1)C1CCc2cccnc2CC1 (stereo not given)
6.35

---

- measured.on: Sigma non-opioid intracellular receptor 1 (Cavia porcellus)
- Sequence (Q60492 whole entry): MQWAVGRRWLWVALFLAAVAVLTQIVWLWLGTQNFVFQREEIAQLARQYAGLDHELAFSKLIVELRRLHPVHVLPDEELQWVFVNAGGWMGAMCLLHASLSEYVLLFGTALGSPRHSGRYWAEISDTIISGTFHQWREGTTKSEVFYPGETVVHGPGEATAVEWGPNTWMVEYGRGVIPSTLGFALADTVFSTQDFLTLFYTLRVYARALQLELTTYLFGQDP
- experiment.description: Displacement of [3H]-(+)-pentazocine from sigma1 receptor in guinea pig brain cortex membrane after 120 mins by scintillation counting method
Provide the reported pKi of each item.
On this scale, pKi is minus log10 of a concentration expressed in M (mol/L).

Bench note: what pKi did CN(CCCCc1ccccc1)C1CCc2cccnc2CC1 (stereo not given) show?
6.58

Look up pKi for this compound: c1ccc(CCCNC2CCc3cccnc3CC2)cc1 (stereo not given)
6.00

Fill in the blank: the reported pKi of CN(CCCc1ccccc1)C1CCc2cccnc2CC1 (stereo not given) is ____.
6.58

// returns reported pKi for input c1ccc(CNC2CCc3cccnc3CC2)cc1 (stereo not given)
6.03

For the compound shown here, c1ccc(CCCCNC2CCc3cccnc3CC2)cc1 (stereo not given) , give the reported pKi.
6.67

---

- measured.on: Sigma intracellular receptor 2 (Rattus norvegicus)
- Sequence (Q5U3Y7 whole entry): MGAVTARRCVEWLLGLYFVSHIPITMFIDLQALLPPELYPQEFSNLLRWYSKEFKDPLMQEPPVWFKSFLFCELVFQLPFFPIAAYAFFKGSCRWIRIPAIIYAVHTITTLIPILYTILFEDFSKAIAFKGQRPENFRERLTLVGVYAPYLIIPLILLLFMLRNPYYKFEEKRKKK
- experiment.description: Displacement of [3H]-di-o-tolylguanidine from sigma2 receptor in rat liver membranes incubated for 120 mins by scintillation counting method
Consider the following molecules; for each one, report its Ki.

Name the reported Ki value associated with the molecule CN(CCCCc1ccccc1)C1CCc2cccnc2CC1 (stereo not given)
115 nM

Param item = CN(CCCc1ccccc1)C1CCc2cccnc2CC1 (stereo not given) ; retrieve measured Ki.
68 nM

Form field: reported Ki of c1ccc(CNC2CCc3cccnc3CC2)cc1 (stereo not given)
490 nM

Fill in the blank: the reported Ki of c1ccc(CCCCNC2CCc3cccnc3CC2)cc1 (stereo not given) is ____.
68 nM

Entry c1ccc(CCCNC2CCc3cccnc3CC2)cc1 (stereo not given) : reported Ki = ?
276 nM

---

Consider the following compounds; for each one, report its pIC50.
- experiment.description: Displacement of [3H]-(+)-MK-801 from PCP binding site of NMDA receptor in pig brain cortex membranes after 120 mins by solid scintillation counting
- Type: cell membranes, Sus scrofa
pIC50: −log10 of the molar value.

Would you kindly share the measured pIC50 for CN(CCCc1ccccc1)C1CCc2cccnc2CC1 (stereo not given) ?
< 6.00

Data request, read-out pIC50, for CN(CCCCc1ccccc1)C1CCc2cccnc2CC1 (stereo not given)
< 6.00

Fill in the blank: the reported pIC50 of c1ccc(CCCNC2CCc3cccnc3CC2)cc1 (stereo not given) is ____.
< 6.00

Endpoint output: pIC50 of c1ccc(CCCCNC2CCc3cccnc3CC2)cc1 (stereo not given) . Value?
< 6.00

Fill in the blank: the reported pIC50 of c1ccc(CNC2CCc3cccnc3CC2)cc1 (stereo not given) is ____.
< 6.00
